These measurements were taken from PubChem BioAssay (EPA / NIEHS).

Assay: CCTE_Harrill_HTTr_Viability_MCF7: CCTE's 6-hour Cell Viability Assessment for the High-Throughput Transcriptomics (HTTr) Platform, in MCF-7 cells cultured in DMEM + 10% fetal bovine serum, Harrill Lab (AID 2284010)
Activity calls are given as the source filed them. The calls were made as follows: active = hit-call score of the fitted dose curve at least 0.9, where 1 is the maximum; inactive = score below 0.9.
# output must be one of active, inactive

| SAMPLE_SMILES | CLASSIFICATION |
| --- | --- |
| CC(=O)c1cc(C(C)(C)C)cc2c1CCC2(C)C | inactive |
| O=[N+]([O-])c1ccc2c3c(cccc13)CC2 | inactive |
| CN(C)P(=O)(N(C)C)N(C)C | inactive |
| C=C(C)C(=O)[O][Sn]([CH2]CCC)([CH2]CCC)[CH2]CCC | active |
| NC(=O)CF | inactive |

Lab log entry: COC(=O)Cc1ccccc1 — outcome as called in the assay?
inactive
